# System: UACC-62 melanoma
# test: NCI tumour cell line growth inhibition, 48 h
readoutType: TGI

[
  {
    "compound": "OC1CC(O)c2c(Cl)sc(Cl)c21 (stereo not given)",
    "readoutType": "TGI",
    "observedResult": "> 100 µM"
  },
  {
    "compound": "C[C@]12CC[C@@H]3c4ccc(O)cc4CC[C@H]3[C@@H]1CC[C@@H]2NS(=O)(=O)Cc1ccc(Cl)cc1",
    "readoutType": "TGI",
    "observedResult": "4.56 µM"
  },
  {
    "compound": "COc1ccc(SC(C)(SC)c2ccccn2)c(OC)n1 (stereo not given)",
    "readoutType": "TGI",
    "observedResult": "> 100 µM"
  },
  {
    "compound": "CC1(C)OCC(C2OC(N3O[C@H](CI)C[C@@H]3c3ccccc3)C3OC(C)(C)OC23)O1 (stereo not given in full)",
    "readoutType": "TGI",
    "observedResult": "> 100 µM"
  },
  {
    "compound": "CC(C)/C=N\\n1c(N)c(C#N)c(C#N)c1C(C)C",
    "readoutType": "TGI",
    "observedResult": "34.7 µM"
  },
  {
    "compound": "C=C[C@H]1CN2CCc3c([nH]c4c([C@H]5CCCN5C)c(O)ccc34)[C@@H]2C[C@@H]1C[C@H]1c2[nH]c3ccccc3c2CCN1C",
    "readoutType": "TGI",
    "observedResult": "3.16 µM"
  },
  {
    "compound": "O=C(O)C1CC(c2ccccc2)=NN1c1ccccc1 (stereo not given)",
    "readoutType": "TGI",
    "observedResult": "> 100 µM"
  },
  {
    "compound": "COc1cc(-c2coc3c(OC)c(OC4OC(CO)C(O)C(O)C4O)c(OC)cc3c2=O)cc(OC)c1C (stereo not given)",
    "readoutType": "TGI",
    "observedResult": "17.2 µM"
  },
  {
    "compound": "Cc1cc(S(=O)(=O)Nc2nnc(-c3ccccc3)c(-c3ccccc3)n2)c(SCc2ccccc2)cc1Cl",
    "readoutType": "TGI",
    "observedResult": "30.9 µM"
  },
  {
    "compound": "O=C1OC2(c3ccccc3Oc3ccccc32)c2ccccc21",
    "readoutType": "TGI",
    "observedResult": "> 100 µM"
  }
]

Data origin: PubChem BioAssay (NCI)
